Data origin: PubChem BioAssay (NCI)

- System: M14 melanoma
- run.description: NCI-60 one-dose screen, 48 h (100 = growth as untreated, 0 = no growth, -100 = all killed)
- cond: 10 µM unless noted
The panel holds about 83,000 compounds, 20% with a hit somewhere; the sample as a whole holds those more often. Active and inactive are the calls of the source. Rule for the calls: active = growth percent below 10; inactive = the rest.
In this section we review reported growth values for a set of compounds.
measured.property: growth

CC(C)=CCCC(C)c1ccc(C)c2c1OCN(CCCCCO)C2 (stereo not given) | 84.2% (inactive)
COc1cc2ncnc(Nc3ccc(F)c(Cl)c3)c2cc1OCC(=O)N1CCN(c2ccccc2)CC1 | 99.4% (inactive)
CCOC(=O)c1c(C(=O)c2cn(C)c3ccc(Br)cc23)c(-c2cn(C)c3ccc(Br)cc23)n(NC(=O)OC(C)(C)C)c1C | 82.7% [100 µM] (inactive)
[O-]/[N+](=C\c1ccc(-n2cc(Cc3ccccc3Cc3cn(-c4ccc(/C=[N+](/[O-])c5ccccc5)cc4)nn3)nn2)cc1)c1ccccc1 | 101% (inactive)
CC(=O)n1nc(C(=O)OC(C)(C)c2ccccc2)c2ccccc21 | 96.4% (inactive)

---

- System: TK-10 renal
- run.description: NCI-60 one-dose screen, 48 h
- cond: 10 µM unless noted
- Method: Growth inhibition of the TK-10 human tumor cell line is measured as a screen for anti-cancer activity. Cells are grown in 96 well plates and exposed to the test compound for 48 hours. Compounds are tested at a single concentration, which is 10^-5 M for most compounds. The reported endpoint is percent growth (GI% or GIPRCNT), where numbers from 0 - 100% represent growth inhibition, and numbers from -100% - 0 represent cell death. For example, a value of 40 represents 60% growth inhibition. […]
The panel holds about 83,000 compounds, 20% with a hit somewhere; the sample as a whole holds those more often. Active and inactive are the calls of the source. The calls were made as follows: active = growth percent below 10; inactive = the rest.
Possible outcomes: YES (active), NO (inactive)

COc1cc2c(c(OC)c1OC)CCC(c1cccc(C(=O)Nc3cccc(Cl)c3)c1)O2 (stereo not given) | NO
CCC(C)(C)C(=O)O[C@H]1C[C@@H](C)C=C2C=C[C@H](C)[C@H](CC[C@@H]3CC(SCCN)CC(=O)O3)[C@H]21 (stereo not given in full) | NO
O=C1NC(=C(Cl)Cl)/C(=N\S(=O)(=O)NCc2ccccc2)N1 | NO
N#CC1=C(N)Oc2c(sc3c(Br)cccc23)C1c1ccc(Cl)cc1 (stereo not given) | NO
O=C1/C(=C/c2ccccc2Br)COc2ccc(O)cc21 | NO
Nc1ncnc2c1N=C(c1ccc(Br)cc1)CC(c1cccc(Nc3ccnc4cc(C(F)(F)F)ccc34)c1)N2 (stereo not given) | NO
CN1CCc2nc3sc(C(N)=O)c(N)c3c(-c3cccs3)c2C1 | NO
CC(C)c1ccc(C(=O)Nc2nc3ccc(O)c(CN(C)C)c3s2)cc1 | NO
Oc1c(I)cc(I)cc1CNCc1ccccn1 | NO
CC(C)(Sc1cc(C(C)(C)C)c(OC(=O)CCCC(=O)O)c(C(C)(C)C)c1)Sc1cc(C(C)(C)C)c(OC(=O)CCCC(=O)O)c(C(C)(C)C)c1 | NO
CN1C(=O)/C(=C\c2c(Cl)cccc2Cl)c2ccccc21 | NO
CC1CN(S(=O)(=O)c2oc(-c3ccc(Cl)cc3)nc2C#N)CC(C)O1 (stereo not given) | YES
COC(=O)C1Cc2ccccc2CN1C(=O)c1ccc2c(c1)Cc1ccccc1-2 (stereo not given) | NO
NS(=O)(=O)c1ccc(N=Nc2c(O)n(Cc3ccccc3)c3ccc(Cl)cc23)cc1 | NO
Cc1cc(C(=O)O)c(C)n1-c1cccc(C(=O)O)c1 | NO
COc1ccc(/C=N\Nc2nc(SCCC(C)C)nc(-c3ccc(OC)cc3)c2C#N)cc1 | NO
O=S(=O)(NCCCNc1nccc(-c2c(-c3ccc(F)c(O)c3)nc3sccn23)n1)c1ccccc1 | NO
COC1=CC(c2ccc[nH]2)=N/C1=C\c1[nH]c(C)c(C)c1CCC(=O)OCc1ccccc1 | YES
O=C(NNC(=O)c1ccc(NC(=O)c2ccccn2)cc1)Nc1ccc([N+](=O)[O-])cc1 | NO
Cc1cc(N2CCN(CCNc3ccnc4cc(Cl)ccc34)CC2)nc(N2CCOCC2)n1 | NO

---

In this section we review reported growth values for a set of compounds.
- Tested on: MOLT-4 leukemia
- run.description: NCI-60 one-dose screen, 48 h (100 = growth as untreated, 0 = no growth, -100 = all killed)
- cond: 10 µM unless noted
This is part of a sample that, as a whole, favours compounds with a hit. Of some 83,000 tested, about 20% had one in any assay.
measured.property: growth (%)

CC(C)(Sc1cc(C(C)(C)C)c(OC(=O)CCCC(=O)O)c(C(C)(C)C)c1)Sc1cc(C(C)(C)C)c(OC(=O)CCCC(=O)O)c(C(C)(C)C)c1 | 26.6
CCCCNC(=O)Oc1ccc(/C(=C(/C)Cc2ccc(OC)cc2)c2ccc(OCCN(CC)CC)cc2)cc1 | 48.3
C/C(Cc1ccc(Cl)cc1)=C(\c1ccc(O)cc1)c1ccc(Cl)cc1 | 81
CCN(CC)CCn1c2ccc(OC)cc2c2sc3cc(OC)ccc3c(=O)c21 | 3.81
CCn1c(SCC(=O)N/N=C(\C)c2ccc(Cl)cc2)nc2c1c(=O)n(C)c(=O)n2C | 92.2
COc1ccc(C(=O)N2c3ccccc3Sc3ccccc32)c(OC)c1 | 12
Cc1cc(C(=O)Nc2ncc(Cc3cccc(C(F)(F)F)c3)s2)c2ccccc2n1 | 14.9
COc1ccc(-c2noc(C(=O)O)c2-c2cc(OC)c(OC)c(OC)c2)cc1 | 25.7
O=C1c2ccc3c4c5ccc(c24)C(=O)N1CCCOCCCCOCCCNCc1ccc(cc1)CNCCCOCCCCOCCCN(C3=O)C5=O | -12.3
COc1ccc(/C=N/NC(=O)c2ccc(-n3cc(-c4ccccc4)nn3)cc2)cc1OC | 95.6
Clc1cccc(Nc2ncnc3ccc(-c4cnc5[nH]ccc5c4)cc23)c1 | 50.1
Cc1c[n+](Cc2ccc3ccccc3c2)cn1Cc1ccc2ccccc2c1 | -3.59
COc1ccc2c(c1)CC[C@H](O)/C2=C/c1cc(OC)c(OC)c(OC)c1 | 13.5
CS(=O)(=O)Nc1cncc(-c2ccc3ncnc(Nc4cncc(Cl)c4)c3c2)c1 | 78.4
COc1ccc2c(c1OC)CO[C@@H]2[C@H]1c2c(cc3c(c2OC)OCO3)CCN1S(=O)(=O)c1cn(C)cn1 | 27.4
CCC(C)N(CCNc1cc(OC)cc2cccnc12)CC(C)C (stereo not drawn) | 87.4
O=C1/C=C/[C@@H](O)[C@@H]2C[C@@H](O)C[C@H]2/C=C/CCC[C@H](CCc2ccccc2)O1 | 9.48
C=C1C(=O)O[C@H]2[C@H]1CC/C(COC(=O)c1cc3ccccc3s1)=C\CC[C@@]1(C)O[C@@H]21 | -4.09
Ic1ccc(OCCCCn2ccnc2)cc1 | 82.2
Nc1cnc(C(=O)NNc2nc3cc(F)ccc3n3cccc23)cn1 | 19
COC(=O)c1c(C)nc(C)c2c1C(=O)C(Br)=C(NCc1ccccc1)C2=O | 13.6
CCN(CC)CCn1c2ccc(O)cc2c2sc3cc(O)ccc3c(=O)c21 | 9.25
COc1ccc(C(=O)Nc2cccc(-c3cc(=O)c4c(OC)c(OC)c(OC)cc4o3)c2)cc1 | 23.3
CN(C)CCNC(=O)c1cc2c3cc(Cl)ccc3[nH]c2c2ncccc12 | -12.4
Cc1cccc(CNc2c3ccccc3nc3ccccc23)c1 | 2.32
Cc1ccc(-c2nc([P+](c3ccccc3)(c3ccccc3)c3ccccc3)c(S(=O)(=O)c3ccc(C)cc3)o2)cc1 | -3.24
c1ccc(-c2oc(-c3ccccc3)c(CN3CCCCC3)c2CN2CCCCC2)cc1 | 15.2
Cc1ccc2c(n1)C(=O)C(Br)=C(CC(C)C)C2=O | 19.5
COc1ccc(OC)c(Nc2nnc(-c3ccc(O)c(OC)c3)o2)c1 | 60.8
CC(=O)O[C@@H]1C[C@]2(C(C)C)O[C@@]1(C)[C@@H]1CCC(C)=C1[C@@H]2OC(=O)/C=C/c1ccccc1 | 83.8
Nc1cc(C(=O)NC[C@H]2CN(c3ccc(N4CCC(C(=O)O)CC4)cc3)C(=O)O2)ccc1Cl | 99.4
CCN1CCN(C(=O)[C@]23CCC(C)(C)C[C@@H]2C2=CC[C@@H]4[C@@]5(C)CCC(=O)C(C)(C)[C@@H]5CC[C@@]4(C)[C@]2(C)CC3)CC1 | 10.1
CC/C=C\C[C@H](O)C/C=C1/C(=O)C=C[C@@H]1C/C=C\CCCC(=O)N(C)C | 6.69
Cc1ccc(C(=O)c2ccc(CC(=O)N/N=C/c3ccccc3O)n2C)cc1 | 74
CN1CCc2nc3sc(C(N)=O)c(N)c3c(-c3cccs3)c2C1 | 62.1
NC(=O)c1cccc(-n2ccc3cc(NC(=O)c4ccc(N5CCOCC5)c(C(F)(F)F)c4)ccc32)n1 | 52.5
CCCCCOC(=O)c1c(C)[nH]c(/C=C2\N=C(c3ccc[nH]3)C=C2OC)c1C | 9.58
CCOC(=O)C1=C(c2ccccc2)N=C2SC=C(c3ccc(Cl)cc3)N2C1c1ccc(Cl)cc1 (stereo not drawn) | 31.5
